experiment: NCI Yeast Anticancer Drug Screen. Data for the rad50 strain (AID 155);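 also: 0% = growth of vehicle-only cultures of the same strain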; settings: S. cerevisiae rad50 strain growth inhibition; at 50.0 µM
This is part of a sample that, as a whole, favours compounds with a hit. Of some 79,000 tested, about 15% had one in any assay. Active and inactive are the calls of the source. Rule as the data show it: active = growth inhibition above about 70%; inactive = the rest.
Give your call using only these classes: active, inactive

Previously resolved entries follow.
- compound: "CCCCCC/C=C1\\CCC(CN2CCOCC2)C1=O (configuration not stated)"
  assignedCategory: "active"
- compound: "CN(Cc1cnc2nc(N)nc(N)c2n1)c1ccc(C(=O)NC(CCC(=O)O)C(=O)O)cc1C(F)(F)F (configuration not stated)"
  assignedCategory: "active"

Look up the recorded call for CCOC(=O)C1=C(c2ccccc2)OC(N)=C(C#N)C1c1ccc(C)cc1 (configuration not stated) in this test. active

Returns: the outcome recorded for O=C1CSC(=S)N1Cc1ccncc1 in this assay. inactive

So what was the verdict on COc1ccc2c(c1)n([O-])c1cc(C#N)ccc1[n+]2=O in this test? active

Query: recorded result category for Cn1cc(NC(=O)Nc2cc(C(=O)Nc3cc(C(=O)Nc4cc(S(=O)(=O)O)c5cc(S(=O)(=O)O)cc(S(=O)(=O)O)c5c4)n(C)c3)n(C)c2)cc1C(=O)Nc1cc(C(=O)Nc2cc(S(=O)(=O)O)c3cc(S(=O)(=O)O)cc(S(=O)(=O)O)c3c2)n(C)c1 in this test active

In this assay, the call recorded for Nc1ccc(Cl)c2c1C(=O)c1ccccc1C2=O was what? active

I'd appreciate the recorded outcome for CN(C)C(=O)c1cc(Cl)cc(-c2ccccc2)c1O from this test. inactive

---

growth inhibition values for the compounds below.
experiment: NCI Yeast Anticancer Drug Screen. Data for the mec2-1 strain (AID 157); conditions: S. cerevisiae mec2-1 strain, at 50.0 µM, hits give high values
Compounds without any hit were thinned out: in the full panel of roughly 79,000, 15% have a hit.
Give your result in % as a bare value.

Observe how each entry below is paired with its result.
- structureSmiles: "CCCCCCCCCCCCCC(=O)CBr"
  readingUnit: "%"
  growth inhibition: 80.1
- structureSmiles: "O=C1C=CC(=O)N1c1ccc2c(c1)Cc1cc(Cl)ccc1-2"
  readingUnit: "%"
  growth inhibition: 78.3

Now turn to the next compound.
For C=C(CN(C)C)C(=O)c1ccccc1C the compound record lists growth inhibition as 78.7

---

experiment: NCI Yeast Anticancer Drug Screen. Data for the rad50 strain (AID 155);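 also: 0% = growth of vehicle-only cultures of the same strain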; details: S. cerevisiae rad50 strain growth inhibition; at 5.0 µM (retest, dose inferred, filed as 0.5)
About 79,000 compounds went through this panel and 15% of them were active in at least one assay; those are over-represented in the sample as a whole. The source made the active and inactive calls. No stated cut-off is given here; in the data, active means growth inhibition above about 70%; inactive means the rest.
I would appreciate it if you answered using one of these outcomes: 1.0 = active, 0.0 = inactive

- compound: "CC(=O)O/N=C1/CCC2C3CC=C4CC(OC(C)=O)CCC4(C)C3CCC12C (centres undefined)"
  assignedCategory: 0.0
- compound: "O=C(Nc1ccc2c(c1)Cc1cc([N+](=O)[O-])c(F)cc1-2)C(F)(F)F"
  assignedCategory: 0.0

# outcome recorded in this test, key = Cc1ccc(/C=C/C(=O)/C=C/c2ccc(C)o2)o1 0.0

Which result was noted for this compound in the test: COc1ccc(C=Nc2ccccc2O)cc1 0.0

Please let me know the test result on file for CCC[N+]1=C(/C=C/c2ccc3cccnc3c2O)C(C)(C)c2ccccc21 . 0.0

Hi, do you know how COc1ccc2c(c1)CCCN2CCCCCCCN1CCCCC1 came out in this test? 0.0

Would you mind telling me which call this test gave COc1ccc(C(c2c(O)c3ccccc3oc2=O)N2CCOCC2)cc1 (centres undefined) ? 0.0

Outcome? CC(C)CC(CC(C)C)NCC(C)OC(=O)C(c1ccccc1)c1ccccc1 (centres undefined) 0.0

Outcome? O=S1(=O)c2ccccc2C(O)(c2ccccc2)c2cc3ccccc3n21 (centres undefined) 0.0

What did the test return for CCCCCCCCCCCCCCC[N+]1(CC)CCCCC1 ? 1.0

Tell me the assay call for CC1CCN(C(=S)NNC(C)c2cc3ccccc3cn2)CC1 (centres undefined) please. 0.0

Fill in: this test's call for c1cnc2ccc3c4cccnc4ccc3c2c1 is ___ 0.0

Could you please tell me the result logged for CC(C)(C)SC(=O)C1(C)OC1c1ccc([N+](=O)[O-])cc1 (centres undefined) in this assay? 0.0

Assay outcome for CCSC(=O)/C=C1\CN(C(=O)OC(C)(C)C)C1C(=O)OC(C)(C)C (centres undefined) : what was it? 0.0

Returns: the outcome recorded for Cc1c2cc[n+]([O-])cc2c(C)c2c1oc1ccccc12 in this assay. 0.0

For CN=S(=O)(OCCCCCCCCCOS(=O)(=NC)c1ccc(C)cc1)c1ccc(C)cc1 (centres undefined) , what call appears in the results of this test? 0.0

---

experiment: NCI Yeast Anticancer Drug Screen. Data for the mec2-1 strain (AID 157); details: S. cerevisiae mec2-1 strain, at 5.0 µM (retest, dose inferred, filed as 0.5), hits give high values
About 79,000 compounds went through this panel and 15% of them were active in at least one assay; those are over-represented in the sample as a whole. Where a SMILES comes first, the peptide text is derived from it. The star is where a group is joined. Fmoc = O=C(OCC1c2ccccc2-c2ccccc21)*; Boc = CC(C)(C)OC(=O)*
readout: growth inhibition (%)
Express the result in % but write the number alone.

Some compounds with known growth inhibition results, for comparison:
- compound: "CC(C)(C)CC(C)(C)c1ccc(Oc2ccc([N+](=O)[O-])cc2S(=O)(=O)O)cc1"
  readingUnit: "%"
  growth inhibition: -6
- compound: "Cc1cc(Cl)ccc1NC(=O)CC1SC(=NC(=O)c2ccccc2Cl)NC1=O (centres undefined)"
  readingUnit: "%"
  growth inhibition: 99
- compound: "COc1cccc2c1C(=O)c1c(O)c3c(c(O)c1C2=O)CC(O)(C(C)=O)CC3OC1CC(N/C(C)=C/C(C)=O)C(O)C(C)O1 (centres undefined)"
  readingUnit: "%"
  growth inhibition: 65
- compound: "Cc1ccc2c(ccc3ccccc32)c1"
  readingUnit: "%"
  growth inhibition: 1
- compound: "COC(=O)C1CCN(Cc2ccccc2)CC1=O (centres undefined)"
  readingUnit: "%"
  growth inhibition: 48
- compound: "Cc1nc(-c2ccc(N=Cc3ccc(N(CCOS(C)(=O)=O)CCOS(C)(=O)=O)cc3Cl)cc2)c(C)s1"
  readingUnit: "%"
  growth inhibition: -68
- compound: "Oc1cc2ccccc2c2c1ccc1ccccc12"
  readingUnit: "%"
  growth inhibition: -35
- compound: "COc1ccc2c(Cc3ccc(O)cc3)cncc2c1O"
  readingUnit: "%"
  growth inhibition: -8

Recorded result, CC(C)(C)OC(=O)NCCCCC(NC(=O)OCC1c2ccccc2-c2ccccc21)C(=O)N1CCCC1C(=O)NCC(N)=O (stereo not drawn) (Fmoc-Lys(Boc)-Pro-Gly-NH2; configuration not given here) , growth inhibition: 13

growth inhibition reported for this compound CC(C)(C)C(=O)OCC(=O)c1ccc(-c2ccccc2)cc1 : -6

Value of growth inhibition reported for the compound CCOC(=O)c1ccc(N(CCC(O)CN=[N+]=[N-])S(=O)(=O)c2ccc(C)cc2)cc1 (centres undefined) is 11

Summary for this compound, CCOc1ccc2c(c1)[n+]([O-])c(S(=O)(=O)c1ccc(C)cc1)c(N)[n+]2[O-] : growth inhibition is 18

Query CN1N=C2c3ccccc3CC[C@H]2C1c1cccc(O)c1 (some centres undefined) yields growth inhibition of 5

GET /value?item= O=C(O)c1ccccc1-c1ccccc1C(=O)Nc1ccc2c(c1)Cc1cc(F)ccc1-2 &field=growth inhibition returns -3

Lab note: Cc1cc(Nc2ccc(O)c(CN3CCN(Cc4cc(Nc5cc(C)nc(N)n5)ccc4O)CC3)c2)nc(N)n1 gave growth inhibition of 6

So for C=C(CN1CCCC1)C(=O)c1ccc(OC)cc1 , the logged growth inhibition turned out to be 7

---

assay: NCI Yeast Anticancer Drug Screen. Data for the sgs1 mgt1 strain (AID 161);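 also: 0% = growth of cultures given vehicle only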; settings: S. cerevisiae sgs1 mgt1 strain, at 5.0 µM (retest, dose inferred, filed as 0.5), hits give high values
This is part of a sample that, as a whole, favours compounds with a hit. Of some 79,000 tested, about 15% had one in any assay.
Classify by measured growth inhibition: true (1) if it is equal to or exceeds 10%, false (0) if it is smaller.

Solved entries:
- compound: "CC(=O)Oc1ccccc1N(C(C)=O)S(=O)(=O)c1ccc(C)cc1"
  assignedCategory: "true (1)"
- compound: "OC1OCC(OCc2ccccc2)C(OCc2ccccc2)C1OCc1ccccc1 (stereo not given)"
  assignedCategory: "false (0)"
- compound: "CCOC(=O)/C(=C\\c1ccc(C)cc1)C(C)=O"
  assignedCategory: "true (1)"
- compound: "ONC(=Nc1ccccc1)c1ccccc1"
  assignedCategory: "false (0)"

# evaluate next
Is reported growth inhibition greater than or equal to 10% here: CNC(=O)NC(c1cc(OC)c(OC)c(OC)c1)c1cc2c(cc1O)OCO2 (stereo not given) false (0)
